Experiment: Oral bioavailability (5 mg/kg, oral) was determined in dogs
Type: ADME, organism-based, Canis lupus familiaris
Settings: dog, in vivo
QUANTITY_NAME: bioavailability (%)

In [3]: df
Out[3]:
                                   compound  numeric_value
0  NC1CCC(CNC(=O)[C@@H]2CCCN2C(=O)CC(c2ccccc2)c2ccccc2)CC1.O=C(O)C(F)(F)F (stereo partly specified)             58

---

Experiment: Oral bioavailability in rat (dose 10 mg/kg)
Format: ADME, organism-based
Details: in vivo
Catalogue of bioavailability values

COMPOUND	bioavailability
NC1CCC(CNC(=O)[C@@H]2CCCN2C(=O)CC(c2cccnc2)c2ccc3c(c2)OCO3)CC1.O=C(O)C(F)(F)F (single isomer, unassigned; diastereomer 2)	< 5%
NC1CCC(CNC(=O)[C@@H]2CCCN2C(=O)CC2c3ccccc3CCc3ccccc32)CC1.O=C(O)C(F)(F)F (stereo partly drawn)	12%
Cl.NC1CCC(CNC(=O)[C@@H]2CCCN2C(=O)CC2c3ccccc3C=Cc3ccccc32)CC1 (stereo partly drawn)	51%

---

Assay: Oral bioavailability (5 mg/kg) was determined in dogs
Assay type: ADME, organism-based, Canis lupus familiaris
Details: dog, in vivo
QUANTITY_NAME: bioavailability (%)

>>> df
                                   molecule    quantity_name  numeric_value
0  NC1CCC(CNC(=O)[C@@H]2CCCN2C(=O)CC(c2ccccc2)c2cccnc2)CC1.O=C(O)C(F)(F)F (single isomer, unassigned; diastereomer 2)  bioavailability              8

---

Experiment: Half-life period after, intravenous injection of 1 mg/kg in rats
Type: ADME, organism-based
Set-up: dose 1 mg/kg, route intravenous
Conditions: rat, in vivo
QUANTITY_NAME: half-life (h)

>>> df
                                   molecule  numeric_value
0  NC1CCC(CNC(=O)[C@@H]2CCCN2C(=O)CC(c2ccccc2)c2ccccc2)CC1.O=C(O)C(F)(F)F (stereo partly specified)           4.47

---

Target: Tissue-type plasminogen activator (Homo sapiens)
Sequence (P00750 whole entry): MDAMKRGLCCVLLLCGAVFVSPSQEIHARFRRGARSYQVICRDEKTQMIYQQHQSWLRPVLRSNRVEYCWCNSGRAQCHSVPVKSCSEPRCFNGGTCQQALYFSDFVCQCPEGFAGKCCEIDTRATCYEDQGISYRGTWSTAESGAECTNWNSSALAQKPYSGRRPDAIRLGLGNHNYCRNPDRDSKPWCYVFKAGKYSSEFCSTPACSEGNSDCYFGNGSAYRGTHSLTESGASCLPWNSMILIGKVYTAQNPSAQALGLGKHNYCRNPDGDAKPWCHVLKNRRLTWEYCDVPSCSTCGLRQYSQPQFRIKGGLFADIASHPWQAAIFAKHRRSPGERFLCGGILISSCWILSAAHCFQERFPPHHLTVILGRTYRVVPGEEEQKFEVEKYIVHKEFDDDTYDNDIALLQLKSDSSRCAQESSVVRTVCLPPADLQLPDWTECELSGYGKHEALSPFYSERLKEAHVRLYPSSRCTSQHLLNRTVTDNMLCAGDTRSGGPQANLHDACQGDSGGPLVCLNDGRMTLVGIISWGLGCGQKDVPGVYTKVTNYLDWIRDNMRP
Experiment: Inhibitory activity against serine protease TPA

COMPOUND	Ki
NC1CCC(CNC(=O)[C@@H]2CCCN2C(=O)CC(c2ccccc2)c2cccnc2)CC1.O=C(O)C(F)(F)F (single isomer, unassigned; diastereomer 2)	746 µM
NC1CCC(CNC(=O)[C@@H]2CCCN2C(=O)CC(c2ccccc2)c2ccccc2)CC1.O=C(O)C(F)(F)F (stereo partly specified)	> 1000 µM
NC1CCC(CNC(=O)[C@@H]2CCCN2C(=O)CC(c2ccccc2)c2ccncc2)CC1 (single isomer, unassigned; diastereomer 2)	436 µM
NC1CCC(CNC(=O)[C@@H]2CCCN2C(=O)CC(c2cccnc2)c2ccc3c(c2)OCO3)CC1.O=C(O)C(F)(F)F (single isomer, unassigned; diastereomer 2)	> 500 µM
NC1CCC(CNC(=O)[C@@H]2CCCN2C(=O)CC(c2ccccc2)c2ccccn2)CC1 (single isomer, unassigned; diastereomer 1)	> 1000 µM
Cl.NC1CCC(CNC(=O)[C@@H]2CCCN2C(=O)CC2c3ccccc3C=Cc3ccccc32)CC1 (stereo partly specified)	268 µM

---

Molecular target: Plasma kallikrein (Homo sapiens, UniProt P03952)
Sequence (P03952 20-390 limits assumed): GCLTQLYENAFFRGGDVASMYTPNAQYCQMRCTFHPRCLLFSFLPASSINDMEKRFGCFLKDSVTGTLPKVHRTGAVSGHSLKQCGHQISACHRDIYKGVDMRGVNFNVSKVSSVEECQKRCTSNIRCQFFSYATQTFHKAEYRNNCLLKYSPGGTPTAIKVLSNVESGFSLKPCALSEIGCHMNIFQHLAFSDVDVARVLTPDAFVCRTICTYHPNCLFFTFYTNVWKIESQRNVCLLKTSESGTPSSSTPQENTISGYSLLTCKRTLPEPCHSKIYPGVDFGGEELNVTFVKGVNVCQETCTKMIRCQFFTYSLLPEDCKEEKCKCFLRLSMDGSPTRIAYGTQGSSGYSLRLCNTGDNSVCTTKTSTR
Sequence (P03952 391-638 limits assumed): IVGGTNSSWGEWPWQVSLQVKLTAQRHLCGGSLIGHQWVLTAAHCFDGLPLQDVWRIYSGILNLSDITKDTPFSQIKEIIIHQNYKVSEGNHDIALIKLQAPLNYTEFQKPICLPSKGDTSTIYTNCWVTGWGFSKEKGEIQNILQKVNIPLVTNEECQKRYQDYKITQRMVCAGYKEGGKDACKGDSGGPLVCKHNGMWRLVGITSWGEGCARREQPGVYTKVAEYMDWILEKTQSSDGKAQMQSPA
Test: Inhibitory activity against serine protease plasma kallikrein
pKi: −log10 of the molar value.

COMPOUND	LIMIT_OPERATOR	pKi
NC1CCC(CNC(=O)[C@@H]2CCCN2C(=O)CC(c2ccccc2)c2ccccc2)CC1.O=C(O)C(F)(F)F (some centres not stated)	<	3.00
Cl.NC1CCC(CNC(=O)[C@@H]2CCCN2C(=O)CC2c3ccccc3C=Cc3ccccc32)CC1 (some centres not stated)	=	3.11
Cl.NC1CCC(CNC(=O)[C@@H]2CCCN2C(=O)CC(C2CCCCC2)C2CCCCC2)CC1 (some centres not stated)	=	3.77
NC1CCC(CNC(=O)[C@@H]2CCCN2C(=O)CC(c2ccccc2)c2ccccn2)CC1 (single isomer, unassigned; diastereomer 1)	=	3.12
NC1CCC(CNC(=O)[C@@H]2CCCN2C(=O)CC(c2ccccc2)c2ccncc2)CC1 (single isomer, unassigned; diastereomer 2)	<	3.00
NC1CCC(CNC(=O)[C@@H]2CCCN2C(=O)CC(c2ccccc2)c2cccnc2)CC1.O=C(O)C(F)(F)F (single isomer, unassigned; diastereomer 2)	=	3.32
NC1CCC(CNC(=O)[C@@H]2CCCN2C(=O)CC(c2cccnc2)c2ccc3c(c2)OCO3)CC1.O=C(O)C(F)(F)F (single isomer, unassigned; diastereomer 2)	=	3.00

---

The following compounds have recorded Ki on Serine protease 1 (Homo sapiens).
QUANTITY_NAME: Ki

>>> df
                                   compound  result
0  NC1CCC(CNC(=O)[C@@H]2CCCN2C(=O)CC(c2ccccc2)c2ccccn2)CC1 (single isomer, unassigned; diastereomer 2)    5 µM
1  NC1CCC(CNC(=O)[C@@H]2CCCN2C(=O)CC(c2ccccc2)c2cccnc2)CC1 (single isomer, unassigned; diastereomer 1)  2.8 µM
2  Cl.NC1CCC(CNC(=O)[C@@H]2CCCN2C(=O)CC2c3ccccc3C=Cc3ccccc32)CC1 (stereo partly specified)  1.6 µM
3  NC1CCC(CNC(=O)[C@@H]2CCCN2C(=O)CC(c2ccccc2)c2ccncc2)CC1 (single isomer, unassigned; diastereomer 1)   19 µM
4  NC1CCC(CNC(=O)[C@@H]2CCCN2C(=O)CC(c2ccccc2)C2CCCCC2)CC1 (single isomer, unassigned; diastereomer 1)  1.7 µM
5  CC(CC(=O)N1CCC[C@H]1C(=O)NCC1CCC(N)CC1)(c1ccccc1)c1ccccc1 (stereo partly specified)   17 µM

---

Reported Ki values, UniProt:P00734.

COMPOUND	Ki / nM
NC1CCC(CNC(=O)[C@@H]2CCCN2C(=O)CC(c2cccnc2)c2ccc3c(c2)OCO3)CC1.O=C(O)C(F)(F)F (single isomer, unassigned; diastereomer 2)	0.28
NC1CCC(CNC(=O)[C@@H]2CCCN2C(=O)CC(c2ccccc2)c2ccccc2)CC1.O=C(O)C(F)(F)F (stereo not given in full)	2
NC1CCC(CNC(=O)[C@@H]2CCCN2C(=O)CC(c2ccccc2)C2CCCCC2)CC1 (single isomer, unassigned; diastereomer 1)	8
NC1CCC(CNC(=O)[C@@H]2CCCN2C(=O)CC(c2ccccc2)C2CCCCC2)CC1 (single isomer, unassigned; diastereomer 2)	4
Cl.NC1CCC(CNC(=O)[C@@H]2CCCN2C(=O)CC2c3ccccc3C=Cc3ccccc32)CC1 (stereo not given in full)	3
NC1CCC(CNC(=O)[C@@H]2CCCN2C(=O)CC(c2ccccc2)c2cccnc2)CC1.O=C(O)C(F)(F)F (single isomer, unassigned; diastereomer 2)	2.2
NC1CCC(CNC(=O)[C@@H]2CCCN2C(=O)CC(c2ccccc2)c2ccncc2)CC1 (single isomer, unassigned; diastereomer 2)	3.4
NC1CCC(CNC(=O)[C@@H]2CCCN2C(=O)CC(c2ccccc2)c2ccccn2)CC1 (single isomer, unassigned; diastereomer 1)	1.8
NC1CCC(CNC(=O)[C@@H]2CCCN2C(=O)CC(c2ccccc2)c2cccnc2)CC1 (single isomer, unassigned; diastereomer 1)	10
NC1CCC(CNC(=O)[C@@H]2CCCN2C(=O)CC(c2ccccc2)c2ccccn2)CC1 (single isomer, unassigned; diastereomer 2)	12
NC1CCC(CNC(=O)[C@@H]2CCCN2C(=O)CC2c3ccccc3CCc3ccccc32)CC1.O=C(O)C(F)(F)F (stereo not given in full)	17
NC1CCC(CNC(=O)[C@@H]2CCCN2C(=O)CC(c2ccccc2)c2ccncc2)CC1 (single isomer, unassigned; diastereomer 1)	29
NC1CCC(CNC(=O)[C@@H]2CCCN2C(=O)CC(c2cccnc2)c2ccc3c(c2)OCO3)CC1 (stereo in doubt)	4.7
Cl.NC1CCC(CNC(=O)[C@@H]2CCCN2C(=O)CC(C2CCCCC2)C2CCCCC2)CC1 (stereo not given in full)	14
CC(CC(=O)N1CCC[C@H]1C(=O)NCC1CCC(N)CC1)(c1ccccc1)c1ccccc1 (stereo not given in full)	16

---

Molecular target: Serine protease 1 (Homo sapiens, UniProt P07477)
Sequence (P07477 whole entry): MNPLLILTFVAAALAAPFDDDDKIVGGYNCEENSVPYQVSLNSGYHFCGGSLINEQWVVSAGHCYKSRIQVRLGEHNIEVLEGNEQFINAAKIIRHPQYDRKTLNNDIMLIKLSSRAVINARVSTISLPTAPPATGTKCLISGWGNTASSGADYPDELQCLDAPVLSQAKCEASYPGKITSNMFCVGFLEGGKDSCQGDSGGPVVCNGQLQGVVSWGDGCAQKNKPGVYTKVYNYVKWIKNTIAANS
Assay: In vitro inhibition of human trypsin.
In this section, each of the compounds is paired with its reported Ki.

COMPOUND	Ki [nM]
NC1CCC(CNC(=O)[C@@H]2CCCN2C(=O)CC(c2cccnc2)c2ccc3c(c2)OCO3)CC1.O=C(O)C(F)(F)F (single isomer, unassigned; diastereomer 2)	2600
NC1CCC(CNC(=O)[C@@H]2CCCN2C(=O)CC(c2ccccc2)C2CCCCC2)CC1 (single isomer, unassigned; diastereomer 2)	300
NC1CCC(CNC(=O)[C@@H]2CCCN2C(=O)CC(c2ccccc2)c2cccnc2)CC1.O=C(O)C(F)(F)F (single isomer, unassigned; diastereomer 2)	2200
NC1CCC(CNC(=O)[C@@H]2CCCN2C(=O)CC(c2ccccc2)c2ccncc2)CC1 (single isomer, unassigned; diastereomer 2)	2200
NC1CCC(CNC(=O)[C@@H]2CCCN2C(=O)CC(c2ccccc2)c2ccccn2)CC1 (single isomer, unassigned; diastereomer 1)	890
NC1CCC(CNC(=O)[C@@H]2CCCN2C(=O)CC(c2cccnc2)c2ccc3c(c2)OCO3)CC1 (stereo in doubt)	1900

Recorded values, source ChEMBL document CHEMBL1130225.
